# System: Danio rerio Tg(wt1b:EGFP) embryo, pronephros
# experimental.protocol: pronephric angle neck segment to proximal convoluted tubule (mean of left and right), fold change vs DMSO control; higher = larger pronephric angle
# run.parameters: 25 µM; exposure: 24-48 hpf
Where a name gives a salt, the structure may show the parent alone.
Label Condition met when pronephric angle neck segment is at or above 1; otherwise label Condition not met.

QUERY: Quick check: does CCCNCC(O)COc1ccccc1C(=O)CCc1ccccc1 (configuration not stated) [Propafenone hydrochloride] have pronephric angle neck segment greater than or equal to 1?
RESULT: Condition met

QUERY: Quick check: does CCCC(=O)Nc1ncnc2c1ncn2[C@@H]1O[C@@H]2COP(=O)(O)O[C@H]2[C@H]1OC(=O)CCC [Bucladesine sodium salt] have pronephric angle neck segment greater than or equal to 1?
RESULT: Condition not met

QUERY: Quick check: does CN(C)CCOC(c1ccccc1)c1ccccc1 [Diphenhydramine hydrochloride] have pronephric angle neck segment greater than or equal to 1?
RESULT: Condition not met

QUERY: Quick check: does CN[C@@H]1[C@@H](O[C@H]2O[C@H](CO)[C@@H](N)[C@H](O)[C@H]2O)OC2C[C@@H](N)[C@@H](O[C@H]3[C@H](O)[C@@H](O)[C@H](N)C[C@@H]3N)OC2[C@@H]1O (some centres not stated) have pronephric angle neck segment greater than or equal to 1?
RESULT: Condition not met

QUERY: Quick check: does CC1(C)S[C@@H]2[C@H](NC(=O)[C@H](NC(=O)N3CCNC3=O)c3ccccc3)C(=O)N2[C@H]1C(=O)O [Azlocillin sodium salt] have pronephric angle neck segment greater than or equal to 1?
RESULT: Condition not met

QUERY: Quick check: does CC(C)(Oc1ccc(C2CC2(Cl)Cl)cc1)C(=O)O (configuration not stated) [Ciprofibrate] have pronephric angle neck segment greater than or equal to 1?
RESULT: Condition met

QUERY: Quick check: does "C[C@@H](O)[C@H]1C(=O)N2C(C(=O)O)=C(SCCNC=N)C[C@H]12" have pronephric angle neck segment greater than or equal to 1?
RESULT: Condition not met

QUERY: Quick check: does "CCCCc1ccc2[nH]c(NC(=O)OC)nc2c1" have pronephric angle neck segment greater than or equal to 1?
RESULT: Condition met

* * *

Kindly state fraction of imaged embryos annotated as normal kidney for each of the entries shown.
# Test system: Danio rerio Tg(wt1b:EGFP) embryo, pronephros
# experimental.protocol: fraction of imaged embryos annotated as normal kidney; higher = less nephrotoxic; extreme values may be limits of the assay
# run.parameters: 25 µM; exposure: 24-48 hpf
Structures can show the parent of a compound that is named as a salt.

# fraction of imaged embryos annotated as normal kidney (compound: O=c1[nH]c(=O)n(C2CCCO2)cc1F (stereo not drawn) [Tegafur] ) is 0.917

# fraction of imaged embryos annotated as normal kidney (compound: Cn1c(=O)c2[nH]cnc2n(C)c1=O [Aminophylline] ) is 1

# fraction of imaged embryos annotated as normal kidney (compound: C[C@]12CC[C@H]3C(=CCc4cc(O)ccc43)[C@@H]1CCC2=O [Equilin] ) is 0.25

# fraction of imaged embryos annotated as normal kidney (compound: COc1cc([C@@H]2c3cc4c(cc3[C@@H](O[C@@H]3O[C@@H]5CO[C@@H](C)O[C@H]5[C@H](O)[C@H]3O)[C@H]3COC(=O)[C@H]23)OCO4)cc(OC)c1O [Etoposide] ) is 0.75

# fraction of imaged embryos annotated as normal kidney (compound: CN(c1nccc(=O)[nH]1)C1CCN(c2nc3ccccc3n2Cc2ccc(F)cc2)CC1 [Mizolastine] ) is 0.917

# fraction of imaged embryos annotated as normal kidney (compound: Cc1ccc(C)c(OCCCC(C)(C)C(=O)O)c1 [Gemfibrozil] ) is 0

# fraction of imaged embryos annotated as normal kidney (compound: CN(C)CCOC(c1ccc(Cl)cc1)c1ccccn1 (stereo not drawn) [Carbinoxamine maleate salt] ) is 0.9

# fraction of imaged embryos annotated as normal kidney (compound: C[C@]12CCC(=O)C=C1C=C[C@@H]1[C@@H]2CC[C@@]2(C)[C@H]1CC[C@@]21CCC(=O)O1 [Canrenone] ) is 0.818
